tested on: HOP-92 NSCLC; experiment: NCI tumour cell line growth inhibition, 48 h
OUTCOME_MEASURE: TGI (µM)
Number in µM, nothing else.

Problem: Request the reported TGI associated with O[C@H](c1cc(C(F)(F)F)nc2c(C(F)(F)F)cccc12)[C@@H]1CCCCN1
Solution: 8.43

Problem: Repeat for the following compound: CCOC(=O)CO/N=C1/C(c2c(O)[nH]c3ccccc23)=Nc2ccccc21
Solution: 63.3

Problem: Repeat for the following compound: Cc1cn(C2CC(O)C(CO[Si](C)(C)C(C)(C)C)OC2OC(C)C)c(=O)[nH]c1=O (stereo unspecified)
Solution: 79.4
